Please provide measured Diameters of zones of inhibition for the entries that follow.
- Tested on: Enterococcus faecalis Bact. 4025
- Assay type: cell-based
- testParameters: E. faecalis; antibiotic disc with 1 mM bisabolol (B) in agar overlay
Numbers only, in millimeters.

Previously resolved entries follow.
{"compound": "CC[C@H]1OC(=O)[C@H](C)[C@@H](O[C@H]2C[C@@](C)(OC)[C@@H](O)[C@H](C)O2)[C@H](C)[C@@H](O[C@@H]2O[C@H](C)C[C@H](N(C)C)[C@H]2O)[C@](C)(O)C[C@@H](C)C(=O)[C@H](C)[C@@H](O)[C@]1(C)O [erythromycin]", "Diameters of zones of inhibition (millimeters)": 19}
{"compound": "CCC[C@@H]1C[C@@H](C(=O)N[C@@H]([C@H]2O[C@H](SC)[C@H](O)[C@@H](O)[C@H]2O)[C@H](C)Cl)N(C)C1 [clindamycin]", "Diameters of zones of inhibition (millimeters)": 11}

Could you tell me Diameters of zones of inhibition for each of these compounds? They are listed below.
1. CN(C)[C@@H]1C(O)=C(C(N)=O)C(=O)[C@@]2(O)C(O)=C3C(=O)c4c(O)cccc4[C@@](C)(O)[C@H]3C[C@@H]12 [tetracycline]
2. CN[C@H](CC(C)C)C(=O)N[C@H]1C(=O)N[C@@H](CC(N)=O)C(=O)N[C@H]2C(=O)N[C@H]3C(=O)N[C@H](C(=O)N[C@H](C(=O)O)c4cc(O)cc(O)c4-c4cc3ccc4O)[C@H](O)c3ccc(c(Cl)c3)Oc3cc2cc(c3O[C@@H]2O[C@H](CO)[C@@H](O)[C@H](O)[C@H]2O[C@H]2C[C@](C)(N)[C@H](O)[C@H](C)O2)Oc2ccc(cc2Cl)[C@H]1O [vancomycin]

1. 24
2. 18
